DETAILS: acidic group
Field: pKa. Provide a value for each of the compounds that follow.
API doc: respond with a numeric literal and nothing else, no unit.

Query :: Dear colleague, I am looking for the recorded pKa of the following compound: O=C(O)c1cnccn1
Result :: 2.7

Query :: // pKa lookup, key: O=C(O)c1cc([N+](=O)[O-])cs1
Result :: 2.83

Query :: pKa for CC(c1cccc([N+](=O)[O-])c1)[N+](=O)[O-] (stereo not given) ?
Result :: 6.67

Query :: Given the entry C[NH+]1CSC[C@H]1C(=O)O , report its measured pKa.
Result :: 1.51

Query :: Give the measured pKa of Cc1cc(O)c(C(C)C)cc1Cl .
Result :: 9.98

Query :: Bench note: what pKa did Cc1c(C(=O)O)cccc1[N+](=O)[O-] show?
Result :: 2.98

Query :: Which pKa value belongs to Nc1ccc(-c2ccc(/N=C/c3ccccc3O)cc2)cc1 ?
Result :: 11.1

Query :: What pKa value was documented for this compound, O=C(O)C#CI ?
Result :: 2

Query :: Given the entry Cc1ccc(Br)cc1C(=O)O , report its measured pKa.
Result :: 3.58

Query :: Given Cc1cc(O)[nH+]c2c1CCO2 , state its recorded pKa.
Result :: 2.42

Query :: Which pKa reading was recorded for the compound CCOCCn1c(CN2CC[NH+](CCCCn3cc(C(=O)O)cn3)CC2)[nH+]c2ccccc21 ?
Result :: 3.8

Query :: Which pKa value belongs to CC1(C(=O)O)CCC=[N+]1[O-] (stereo not given) ?
Result :: 2.95

Query :: Which value of pKa has been reported for CC(C)(C)C1CCn2nnnc2C(C(=O)O)C1 (stereo not given) in the records?
Result :: 4.4

Query :: Returns the measured pKa for the input compound. Input: NC(=O)CN(CCN(CC(N)=O)Cc1ccccc1O)Cc1ccccc1[O-]
Result :: 11

Query :: What value of measured pKa is listed for N#CC(C#N)=C(C#N)C(C#N)C#N ?
Result :: 1.9

Query :: Look up pKa for this compound: [S-]c1ncc2nc[nH]c2n1
Result :: 10.4

Query :: Look up pKa for this compound: [NH3+][C@@H](CCC(=O)O)C(=O)O
Result :: 2.08

Query :: Suppose we examine the compound O=C(O)c1ccccc1CO ; what pKa value has been reported?
Result :: 3.84

Query :: Would you mind telling me what pKa value was observed for NC(=O)Nc1[nH]c[nH+]c1C(=O)O ?
Result :: 2

Query :: Given the compound CC(c1cccc(C(F)(F)F)c1)[N+](=O)[O-] (stereo not given) , what is its reported pKa?
Result :: 6.96

---

Task for the reader: assign each of the following molecules its reported pKa.
DETAILS: basic group
Form rule: numeric answer, no unit written next to it.

Query :: Suppose we examine the molecule [NH3+]C1CCN(Cc2ccccc2)CC1 ; what pKa value has been reported?
Result :: 7.05

Query :: Request the reported pKa associated with COc1ccc2c(c1)NCCN2
Result :: 5.26

Query :: Dear colleague, I am looking for the recorded pKa of the following molecule: CCC(C)(CC)Nc1ccccc1
Result :: 6.32

Query :: Quick one: pKa of CCCCN/C(C)=N/N(C)C ?
Result :: 10.4

Query :: Could you tell me which pKa is on file for CC(C)SC(=N)c1ccccc1 ?
Result :: 8.04

Query :: Given the entry Cc1ccccc1NN=C(C#N)C#N , report its measured pKa.
Result :: -0.84

Query :: Which pKa value belongs to Cc1cc([S-])[nH+]cn1 ?
Result :: 1.8

Query :: Endpoint output: pKa of OCCCCNCl . Value?
Result :: 1.49

Query :: Please report the recorded pKa for O=Cc1ccccn1 .
Result :: 3.86

Query :: // pKa lookup, key: Cc1cc(=O)n(C)cn1
Result :: 2.1

Query :: Given the molecule OCCN1CC[NH2+]CC1 , what is its reported pKa?
Result :: 5.47

Query :: # query: pKa of entry Cc1ccc([N+](=O)[O-])cc1/C(=N/CCCN(C)C)c1ccccc1
Result :: 8.8

Query :: Consider the molecule Cc1cnc2c(ccc3cccnc32)c1 and give its measured pKa.
Result :: 5

Query :: Suppose we examine the molecule NCCC[n+]1ccc2ccccc2c1 ; what pKa value has been reported?
Result :: 8.97

Query :: // returns reported pKa for input c1ccc(NCCN2CCCCC2)cc1
Result :: 9.2

Query :: Name the reported pKa value associated with the molecule CCN(CC)c1ccc(C(O)(c2ccccc2)c2ccc(N(CC)CC)cc2)cc1
Result :: 7.9

Query :: Param item = OCNc1ccc(Cl)cc1 ; retrieve measured pKa.
Result :: 2.22

Query :: # input molecule: CCc1ccc(/N=N/c2ccc(N(C)C)cc2)cc1C ; wanted: its pKa
Result :: 2.6

Query :: For the molecule shown here, NCCCCCc1ccccc1 , give the reported pKa.
Result :: 10.5

Query :: // query pKa value for entry COc1ccc(C=O)cc1C(=O)N[C@@H]1C[C@H]2CC[C@@H](C1)N2Cc1ccccc1
Result :: 8.74

Query :: pKa for NC(=O)Cc1ccncc1 ?
Result :: 5.08

Query :: What does the record list as pKa for NCCCCCc1ccccn1 ?
Result :: 10.4

Query :: I'd like to know its pKa. The molecule in question is c1nc2cc3c(cc2[nH]1)CCCC3
Result :: 5.98

Query :: pKa for Cn1ccc(=O)cc1 ?
Result :: 3.33

Query :: Param item = NCCCCCCN ; retrieve measured pKa.
Result :: 11
